Catalogue of self-cleavage values
B1: HDV Ribozyme (parent)
chain: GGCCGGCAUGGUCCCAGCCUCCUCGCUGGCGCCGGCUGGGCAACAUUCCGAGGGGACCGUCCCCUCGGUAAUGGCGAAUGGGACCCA

variants of: B1; assay: self-cleavage, relative activity (ratio to wild type); higher = more cleavage; co-transcriptional
Quick one: just the number, no unit, thanks!

Known results for variants:
- VARIANT: "G2U U79C"
  self-cleavage: 0.0434
- VARIANT: "C24U A51U"
  self-cleavage: 0.681
- VARIANT: "G38C A77U"
  self-cleavage: 0.128
- VARIANT: "G29U U60A"
  self-cleavage: 0.248
- VARIANT: "G28A A77G"
  self-cleavage: 0.111
- VARIANT: "U65G A71U"
  self-cleavage: 0.863

Query: Looking for the measured self-cleavage of G6U G28C , can you help?
Result: 0.0739

Query: Likewise for C4A U46C ?
Result: 0.111

Query: How about A45C C86U ?
Result: 0.779

Query: Now this one: G39C A42C
Result: 0.244
